assay: AlphaScreen signal interference compounds, dose response, artefact control for ARNT-TACC3 interaction inhibitor project, biochemical, luminescence, cherry-pick (AID 651705); conditions: His-ARNT PASB-GST AlphaScreen artifact counter-screen; series mostly up to 68 µM
The whole screen tested about 1,200 compounds, of which about 620 (52%) were called active.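 How the source made its calls: active means every separate test run was called active for a drop in luminescence, with AC50 within twice the top valid dose (actives reach about 71 µM in these data); inconclusive means the separate test runs disagree in their calls; inactive means all runs inactive, including signal change in the wrong direction.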 The set was probably picked from earlier hits. A selection follows.
Classes used: true for active, false for inactive

> print(dat)
                                   molecule  classification
1           Cn1c(=NC(=O)c2cnccn2)sc2ccccc21           false
2  COc1cc(C2C(C#N)=C(N)Oc3n[nH]c(-c4ccccn4)c32)cc(OC)c1OC (stereo not given)           false
3  CCOC(=O)N1CCN(C(c2cccnc2)c2ccc3cccnc3c2O)CC1 (stereo not given)            true
4  O=S(=O)(N[C@@H]1CC[C@@H](CCn2cc(-c3ccccn3)nn2)O[C@@H]1CO)c1cccc(Cl)c1            true
5  CCN1CCN(C(c2cccnc2)c2cc(Cl)c3cccnc3c2O)CC1 (stereo not given)            true
